- Assayed target: UniProtKB P08842
- Assay comment: Inhibitory activity againist Estrone sulfatase from MCF-7 cells ([…])
Measure: pIC50
Scale: pIC50 equals -log10([C]), with [C] in mol/L.

- Compound structure string: "CCCCC/N=C(\\S)N/N=C/c1cc2c(c(O)c1C(=O)O)-c1c(O)c3c(c(OC)c1CC2)C(=O)c1c(cc(O)c(C)c1O)C3=O"
  Measure: "pIC50"
  Data value: 4.89
- Compound structure string: "CCCCCC/N=C(\\S)N/N=C/c1cc2c(c(O)c1C(=O)O)-c1c(O)c3c(c(OC)c1CC2)C(=O)c1c(cc(O)c(C)c1O)C3=O"
  Measure: "pIC50"
  Data value: 5.10
- Compound structure string: "CCC/N=C(\\S)N/N=C/c1cc2c(c(O)c1C(=O)O)-c1c(O)c3c(c(OC)c1CC2)C(=O)c1c(cc(O)c(C)c1O)C3=O"
  Measure: "pIC50"
  Data value: 4.70
- Compound structure string: "COc1c2c(c(O)c3c1C(=O)c1c(cc(O)c(C)c1O)C3=O)-c1c(cc(/C=N/N=C(\\S)NC(C)(C)C)c(C(=O)O)c1O)CC2"
  Measure: "pIC50"
  Data value: 4.60
- Compound structure string: "CCC(CC)/N=C(\\S)N/N=C/c1cc2c(c(O)c1C(=O)O)-c1c(O)c3c(c(OC)c1CC2)C(=O)c1c(cc(O)c(C)c1O)C3=O"
  Measure: "pIC50"
  Data value: 4.74

Requested field: pIC50. Item: `COc1ccc(N/C(S)=N/N=C/c2cc3c(c(O)c2C(=O)O)-c2c(O)c4c(c(OC)c2CC3)C(=O)c2c(cc(O)c(C)c2O)C4=O)cc1`
4.64

====

- Assayed target: Steryl-sulfatase (Homo sapiens, UniProt P08842)
- Sequence (P08842 whole entry): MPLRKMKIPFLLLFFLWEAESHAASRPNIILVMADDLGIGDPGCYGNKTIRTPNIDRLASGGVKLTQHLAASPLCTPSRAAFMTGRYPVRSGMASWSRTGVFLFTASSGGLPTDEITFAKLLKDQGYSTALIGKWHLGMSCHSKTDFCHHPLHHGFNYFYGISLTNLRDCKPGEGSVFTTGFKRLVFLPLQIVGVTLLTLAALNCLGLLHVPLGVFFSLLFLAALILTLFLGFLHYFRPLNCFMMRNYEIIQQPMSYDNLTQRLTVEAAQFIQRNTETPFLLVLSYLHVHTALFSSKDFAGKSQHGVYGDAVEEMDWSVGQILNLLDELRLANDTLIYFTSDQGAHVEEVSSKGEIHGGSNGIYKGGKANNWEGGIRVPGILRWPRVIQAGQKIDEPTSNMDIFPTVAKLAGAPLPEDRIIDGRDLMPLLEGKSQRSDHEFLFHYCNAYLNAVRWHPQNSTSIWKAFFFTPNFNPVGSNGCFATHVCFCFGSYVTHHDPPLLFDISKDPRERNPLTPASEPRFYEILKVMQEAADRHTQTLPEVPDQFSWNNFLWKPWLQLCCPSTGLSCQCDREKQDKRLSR
- Assay comment: Inhibitory activity againist Estrone sulfatase from MCF-7 cells ([…])
Measure: pIC50
Scale: pIC50 equals -log10([C]), with [C] in mol/L.

Examples from the recorded data:
- Compound structure string: "CN/C(S)=N/N=C/c1cc2c(c(O)c1C(=O)O)-c1c(O)c3c(c(OC)c1CC2)C(=O)c1c(cc(O)c(C)c1O)C3=O"
  Measure: "pIC50"
  Data value: 4.54
- Compound structure string: "COc1c2c(c(O)c3c1C(=O)c1c(cc(O)c(C)c1O)C3=O)-c1c(cc(/C=N/N=C(\\S)NCC(C)C)c(C(=O)O)c1O)CC2"
  Measure: "pIC50"
  Data value: 4.96
- Compound structure string: "COc1c2c(c(O)c3c1C(=O)c1c(cc(O)c(C)c1O)C3=O)-c1c(cc(/C=N/NC(=O)NC3CCCCC3)c(C(=O)O)c1O)CC2"
  Measure: "pIC50"
  Data value: 5.15
- Compound structure string: "CCCCCCCCCCCC/N=C(\\S)N/N=C/c1cc2c(c(O)c1C(=O)O)-c1c(O)c3c(c(OC)c1CC2)C(=O)c1c(cc(O)c(C)c1O)C3=O"
  Measure: "pIC50"
  Data value: 4.30

Would you kindly look at the next entry?
Requested field: pIC50. Item: `COc1c2c(c(O)c3c1C(=O)c1c(cc(O)c(C)c1O)C3=O)-c1c(cc(/C=N/N=C(\S)NC3CCCCCC3)c(C(=O)O)c1O)CC2`
5.74
